Exercise: state measured t½ for each of the molecules provided.
Molecular target: T1, His9-hMSR1 (human MSR1 extracellular domain) (Homo sapiens, UniProt P21757)
T1 construct: human MSR1 extracellular domain expressed with a N-terminal nonahistidine tag; His9 (nonahistidine) (N); purchased R&D Systems 2708-MS
T1 sequence (P21757 77-451 limits assumed): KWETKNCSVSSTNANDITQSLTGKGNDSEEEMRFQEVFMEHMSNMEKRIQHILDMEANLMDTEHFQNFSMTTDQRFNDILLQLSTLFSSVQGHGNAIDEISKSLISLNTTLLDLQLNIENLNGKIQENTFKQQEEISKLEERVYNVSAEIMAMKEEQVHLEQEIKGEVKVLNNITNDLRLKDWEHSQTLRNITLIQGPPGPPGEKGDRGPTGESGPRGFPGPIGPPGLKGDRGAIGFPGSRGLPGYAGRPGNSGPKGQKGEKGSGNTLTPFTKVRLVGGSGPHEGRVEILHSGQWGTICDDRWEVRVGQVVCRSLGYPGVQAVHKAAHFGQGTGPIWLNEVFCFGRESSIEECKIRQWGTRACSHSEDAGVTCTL
Assay: Biacore surface plasmon resonance binding kinetics of anti-MSR1 mAbs, antibody-capture format
Conditions: 37° C.; analyte His9-hMSR1; dissociative half-life; NB = no binding observed
Just the number please, in h, no unit attached.

Lookup: State its t½: H1H21231N-N297Q: modified version of "21231N (H1H21231N-N297Q) anti-MSR1 antibodies" with "a N297Q single point mutation" (antibody, V domains shown) VH: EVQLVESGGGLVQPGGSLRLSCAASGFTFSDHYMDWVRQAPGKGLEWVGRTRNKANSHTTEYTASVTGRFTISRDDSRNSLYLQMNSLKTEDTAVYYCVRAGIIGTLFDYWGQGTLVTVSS VL: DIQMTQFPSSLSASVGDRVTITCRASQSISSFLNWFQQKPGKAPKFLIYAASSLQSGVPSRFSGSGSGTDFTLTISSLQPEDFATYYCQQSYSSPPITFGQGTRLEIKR
Found: 1.68

Lookup: State its t½: H1H21227N-N297D: "The 21227N antibody was also produced as a third version with a N297D mutation" (antibody, V domains shown) VH: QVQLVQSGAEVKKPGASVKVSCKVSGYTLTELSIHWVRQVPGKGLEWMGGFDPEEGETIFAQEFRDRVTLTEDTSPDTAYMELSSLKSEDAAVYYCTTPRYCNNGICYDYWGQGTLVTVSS VL: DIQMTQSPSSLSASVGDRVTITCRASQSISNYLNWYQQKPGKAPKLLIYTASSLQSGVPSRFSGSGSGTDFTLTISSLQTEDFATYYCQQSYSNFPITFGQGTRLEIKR
Found: 19.25

Lookup: State its t½: H1H21227N-N297Q: "modified versions of 21227N (H1H21227N-N297Q and H1H21227N-N297D)"; anti-MSR1 antibody "with a N297Q single point mutation" (antibody, V domains shown) VH: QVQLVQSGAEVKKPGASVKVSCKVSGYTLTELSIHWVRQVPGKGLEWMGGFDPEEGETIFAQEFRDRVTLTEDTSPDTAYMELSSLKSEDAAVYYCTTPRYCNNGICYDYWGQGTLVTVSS VL: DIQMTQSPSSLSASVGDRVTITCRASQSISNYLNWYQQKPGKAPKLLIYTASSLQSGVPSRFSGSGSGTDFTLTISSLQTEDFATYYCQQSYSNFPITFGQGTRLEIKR
Found: 15.7
